Experiment: mn = molality of the nth substance listed, in mol/kg
Conditions: 293.15 K; 101.3 kPa; Liquid; Vibrating tube method; m1 = 0.6
Provide the reported mass density of each item.
Answers are plain numbers, in kg/m3.

Look over these answered cases.
> print(dat)
                                   compound  quantity.measured  endpoint.unit  observed.measurement
1  OC[C@@H](O)[C@@H](O)[C@H](O)[C@H](O)CO [D-mannitol] + O       mass density          kg/m3               1033.43
2  C[C@@H](O)[C@H](N)C(=O)O [L-threonine] + O       mass density          kg/m3                1022.4
3         NCC(=O)O [2-aminoacetic acid] + O       mass density          kg/m3               1016.78

Continue with the compound presented below.
Value of measured mass density for the entry N=C(N)NCCC[C@H](N)C(=O)O [L-arginine] + O : 1025.86
